System Tested: Polyunsaturated fatty acid 5-lipoxygenase (Homo sapiens)
Sequence (P09917 whole entry): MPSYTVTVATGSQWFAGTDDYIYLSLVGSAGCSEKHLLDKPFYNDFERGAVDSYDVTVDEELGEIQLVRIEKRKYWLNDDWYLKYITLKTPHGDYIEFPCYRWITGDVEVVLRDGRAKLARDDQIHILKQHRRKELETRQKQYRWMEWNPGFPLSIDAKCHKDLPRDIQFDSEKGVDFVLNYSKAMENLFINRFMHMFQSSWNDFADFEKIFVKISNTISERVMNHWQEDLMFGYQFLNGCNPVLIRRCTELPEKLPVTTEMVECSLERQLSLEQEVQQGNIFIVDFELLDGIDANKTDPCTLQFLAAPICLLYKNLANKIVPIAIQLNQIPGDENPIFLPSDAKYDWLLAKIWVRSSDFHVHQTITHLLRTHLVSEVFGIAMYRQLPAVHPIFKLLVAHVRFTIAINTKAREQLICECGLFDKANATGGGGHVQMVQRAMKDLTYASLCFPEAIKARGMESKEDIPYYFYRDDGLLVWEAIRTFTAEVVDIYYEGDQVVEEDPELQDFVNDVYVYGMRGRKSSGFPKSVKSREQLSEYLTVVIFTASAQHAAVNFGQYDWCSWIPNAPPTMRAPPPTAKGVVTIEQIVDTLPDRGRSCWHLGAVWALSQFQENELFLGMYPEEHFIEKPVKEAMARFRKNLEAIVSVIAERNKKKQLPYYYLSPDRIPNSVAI
Protocol Text: Inhibition of 5-LOX in human whole blood assessed as inhibition of A23187-induced LTB4 production preincubated for 15 mins followed by A23187 induction measured after 30 mins by ELISA
Could you please report measured IC50 for the items listed next?
Reply numerically in µM, unit not repeated.

*Q* Any idea what IC50 was measured for `Cc1cccc(OC(=O)c2cc([N+](=O)[O-])cc([N+](=O)[O-])c2)c1` ?
*A* 0.5

*Q* Any idea what IC50 was measured for `O=C(NCc1cccc(Br)c1)c1cc([N+](=O)[O-])cc([N+](=O)[O-])c1` ?
*A* 14.4

*Q* Any idea what IC50 was measured for `O=C(Oc1ccccc1)c1cc([N+](=O)[O-])cc([N+](=O)[O-])c1` ?
*A* 15.8

*Q* Any idea what IC50 was measured for `COc1ccc(NC(=O)c2cc([N+](=O)[O-])cc([N+](=O)[O-])c2)cc1` ?
*A* 2.7

*Q* Any idea what IC50 was measured for `O=C(Nc1ccccc1)c1cc([N+](=O)[O-])cc([N+](=O)[O-])c1` ?
*A* 15.2

*Q* Any idea what IC50 was measured for `CCCc1cccc(OC(=O)c2cc([N+](=O)[O-])cc([N+](=O)[O-])c2)c1` ?
*A* 6.5

*Q* Any idea what IC50 was measured for `O=C(Oc1cccc(-c2ccccc2)c1)c1cc([N+](=O)[O-])cc([N+](=O)[O-])c1` ?
*A* 38

*Q* Any idea what IC50 was measured for `O=C(Oc1cccc2ccccc12)c1cccc([N+](=O)[O-])c1` ?
*A* 24.6
